# Measured on: HLA-B*44:05 (Homo sapiens, UniProt P01889, A223V/A65T/A93T/A95T/D201E/D98Y/E176V/E187L/E204Q/E69K/G107R/H137Y/K202T/L105A/L119I/N104T/N87E/Q56L/Q94N/R106L/R155S/R180D/S101N/S121R/S35A/S48T/T118I/V36M/W191S/Y91S)
# Experiment notes: MHC binding assay (UV-ligand exchange, β2m ELISA, peptide exchange yield)
# Condition: binding to HLA-B*44:05
Measured attribute: Peptide exchange (MHC class I binding score, peptide exchange yield)

[
  {
    "Substance": "252 (EEFIGKIGI; listed as Homo sapiens) [compound 252]",
    "Observed value": "++ (>20% = ++)"
  },
  {
    "Substance": "434 (AEQQQQQMY; listed as Homo sapiens) [compound 434]",
    "Observed value": "+++ (>50 = +++)"
  },
  {
    "Substance": "24 (EELALRIGL; listed as Homo sapiens) [compound 24]",
    "Observed value": "+++ (>50 = +++)"
  },
  {
    "Substance": "125 (LEVLHQGQW; listed as Homo sapiens) [compound 125]",
    "Observed value": "+++ (>50 = +++)"
  },
  {
    "Substance": "76 (RLNEHPSNNW; listed as Homo sapiens) [compound 76]",
    "Observed value": "++ (>20% = ++)"
  },
  {
    "Substance": "179 (EEHIFSAF; listed as Homo sapiens) [compound 179]",
    "Observed value": "++ (>20% = ++)"
  },
  {
    "Substance": "242 (CDAQIQYSY; listed as Homo sapiens) [compound 242]",
    "Observed value": "+++ (>50 = +++)"
  },
  {
    "Substance": "437 (HEDPSGSLHL; listed as Homo sapiens) [compound 437]",
    "Observed value": "+++ (>50 = +++)"
  }
]

----------
# Measured on: HLA-B*44:05 (Homo sapiens, UniProt P01889, A223V/A65T/A93T/A95T/D201E/D98Y/E176V/E187L/E204Q/E69K/G107R/H137Y/K202T/L105A/L119I/N104T/N87E/Q56L/Q94N/R106L/R155S/R180D/S101N/S121R/S35A/S48T/T118I/V36M/W191S/Y91S)
# Experiment notes: MHC binding assay (UV-ligand exchange, β2m ELISA, peptide exchange yield)
# Condition: binding to HLA-B*44:05
Measured attribute: Peptide exchange (MHC class I binding score, peptide exchange yield)

[
  {
    "Substance": "87 (GEARGDQVDW; listed as Homo sapiens) [compound 87]",
    "Observed value": "++++ (>75% = ++++)"
  },
  {
    "Substance": "361 (EDASLMGLY; listed as Homo sapiens) [compound 361]",
    "Observed value": "++ (>20% = ++)"
  },
  {
    "Substance": "254 (QEVAGYVLI; listed as Homo sapiens) [compound 254]",
    "Observed value": "+++ (>50 = +++)"
  },
  {
    "Substance": "121 (YENIPVDKV; listed as Homo sapiens) [compound 121]",
    "Observed value": "+++ (>50 = +++)"
  },
  {
    "Substance": "237 (QEIGQKTSV; listed as Homo sapiens) [compound 237]",
    "Observed value": "+++ (>50 = +++)"
  },
  {
    "Substance": "49 (SEYVHSSF; listed as Homo sapiens) [compound 49]",
    "Observed value": "++ (>20% = ++)"
  },
  {
    "Substance": "306 (RRHPSFKRF; listed as Homo sapiens) [compound 306]",
    "Observed value": "+ (>10% = +)"
  },
  {
    "Substance": "192 (LEIMTNLVTL; listed as Homo sapiens) [compound 192]",
    "Observed value": "++++ (>75% = ++++)"
  },
  {
    "Substance": "258 (IEVSSPITL; listed as Homo sapiens) [compound 258]",
    "Observed value": "++++ (>75% = ++++)"
  },
  {
    "Substance": "272 (SEQNIQRANLF; listed as Homo sapiens) [compound 272]",
    "Observed value": "+++ (>50 = +++)"
  },
  {
    "Substance": "343 (SEFDLEQVW; listed as Homo sapiens) [compound 343]",
    "Observed value": "++++ (>75% = ++++)"
  },
  {
    "Substance": "328 (HENGVLTKF; listed as Homo sapiens) [compound 328]",
    "Observed value": "++ (>20% = ++)"
  },
  {
    "Substance": "250 (AELDHLASL; listed as Homo sapiens) [compound 250]",
    "Observed value": "+++ (>50 = +++)"
  },
  {
    "Substance": "388 (VEIVTIPSL; listed as Homo sapiens) [compound 388]",
    "Observed value": "+++ (>50 = +++)"
  },
  {
    "Substance": "290 (AECILSKRL; listed as Homo sapiens) [compound 290]",
    "Observed value": "+++ (>50 = +++)"
  },
  {
    "Substance": "262 (YENILNAI; listed as Homo sapiens) [compound 262]",
    "Observed value": "++ (>20% = ++)"
  },
  {
    "Substance": "144 (IEAYLERIGY; listed as Homo sapiens) [compound 144]",
    "Observed value": "+++ (>50 = +++)"
  },
  {
    "Substance": "1 (KEVDPASNTYTL; listed as Homo sapiens) [compound 1]",
    "Observed value": "++ (>20% = ++)"
  },
  {
    "Substance": "212 (SEASVYLFRF; listed as Homo sapiens) [compound 212]",
    "Observed value": "+++ (>50 = +++)"
  },
  {
    "Substance": "373 (REDPIVYEI; listed as Homo sapiens) [compound 373]",
    "Observed value": "++ (>20% = ++)"
  },
  {
    "Substance": "406 (GETVVLKNM; listed as Homo sapiens) [compound 406]",
    "Observed value": "+++ (>50 = +++)"
  },
  {
    "Substance": "162 (EAYDIELNKW; listed as Homo sapiens) [compound 162]",
    "Observed value": "+++ (>50 = +++)"
  },
  {
    "Substance": "249 (YEMAIYKKY; listed as Homo sapiens) [compound 249]",
    "Observed value": "++++ (>75% = ++++)"
  },
  {
    "Substance": "407 (MEFQNTQSY; listed as Homo sapiens) [compound 407]",
    "Observed value": "+++ (>50 = +++)"
  },
  {
    "Substance": "285 (AEHPDFSPCSF; listed as Homo sapiens) [compound 285]",
    "Observed value": "+++ (>50 = +++)"
  },
  {
    "Substance": "255 (KQWEYNEKLAF; listed as Homo sapiens) [compound 255]",
    "Observed value": "+ (>10% = +)"
  },
  {
    "Substance": "141 (SEKWFRMGF; listed as Homo sapiens) [compound 141]",
    "Observed value": "+++ (>50 = +++)"
  },
  {
    "Substance": "199 (AELPENLKALF; listed as Homo sapiens) [compound 199]",
    "Observed value": "+++ (>50 = +++)"
  },
  {
    "Substance": "128 (TELTEARVQVW; listed as Homo sapiens) [compound 128]",
    "Observed value": "+++ (>50 = +++)"
  },
  {
    "Substance": "142 (QELFLHPVL; listed as Homo sapiens) [compound 142]",
    "Observed value": "++++ (>75% = ++++)"
  },
  {
    "Substance": "158 (VEEERYTGQW; listed as Homo sapiens) [compound 158]",
    "Observed value": "+++ (>50 = +++)"
  },
  {
    "Substance": "370 (EEVLLANALW; listed as Homo sapiens) [compound 370]",
    "Observed value": "+++ (>50 = +++)"
  },
  {
    "Substance": "69 (DENIQKFIW; listed as Homo sapiens) [compound 69]",
    "Observed value": "+++ (>50 = +++)"
  },
  {
    "Substance": "314 (EMREERKF; listed as Homo sapiens) [compound 314]",
    "Observed value": "++ (>20% = ++)"
  },
  {
    "Substance": "47 (TEVHSSPAQRW; listed as Homo sapiens) [compound 47]",
    "Observed value": "+++ (>50 = +++)"
  },
  {
    "Substance": "380 (EECGKAFRVF; listed as Homo sapiens) [compound 380]",
    "Observed value": "+++ (>50 = +++)"
  },
  {
    "Substance": "202 (RELPLVLLA; listed as Homo sapiens) [compound 202]",
    "Observed value": "++ (>20% = ++)"
  },
  {
    "Substance": "124 (NENLDYAIL; listed as Homo sapiens) [compound 124]",
    "Observed value": "++++ (>75% = ++++)"
  }
]
